The reported numbers originate from patent US20210139581A1.

List of Receptor downregulation (EC50) values.
target: human CD33 on primary human monocyte-derived dendritic cells (human, UniProt P20138 18-364); experiment: cell-based or functional assay
Sequence (P20138 18-364): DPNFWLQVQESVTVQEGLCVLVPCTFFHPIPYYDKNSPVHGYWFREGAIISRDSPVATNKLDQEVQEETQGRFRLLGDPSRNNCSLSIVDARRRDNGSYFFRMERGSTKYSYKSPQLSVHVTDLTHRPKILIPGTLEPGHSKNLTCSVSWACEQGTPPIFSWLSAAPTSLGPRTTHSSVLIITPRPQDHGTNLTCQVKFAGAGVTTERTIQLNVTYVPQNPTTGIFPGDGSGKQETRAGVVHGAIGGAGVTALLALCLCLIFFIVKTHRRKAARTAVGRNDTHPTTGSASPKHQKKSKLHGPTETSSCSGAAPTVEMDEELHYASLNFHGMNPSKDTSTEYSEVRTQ
Reply numerically in nM, unit not repeated.

[
  {
    "Binder": "AB-63.16 (antibody, V domains shown) VH: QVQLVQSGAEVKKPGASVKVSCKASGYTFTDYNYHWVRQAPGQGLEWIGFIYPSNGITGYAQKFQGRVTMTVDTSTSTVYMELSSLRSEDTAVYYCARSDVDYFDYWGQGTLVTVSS VL: DIVLTQSPDSLAVSLGERATINCRASQSVHTSTYSYMHWYQQKPGQPPKLLIKYASNLESGVPDRFSGSGSGTDFTLTISSLQAEDVAVYYCQHSWEIPLTFGQGTKLEIK",
    "Endpoint value": 0.0293
  }
]

Next:
Item under review: AB-63.12 (antibody, V domains shown) VH: QVQLVQSGAEVKKPGASVKVSCKASGYTFTDYNFHWVRQAPGQGLEWIGFIYPSNGITGYAQKFTGRVTMTVDTSTSTVYMELSSLRSEDTAVYYCARSTVDYFDDWGQGTLVTVSS VL: DIVLTQSPDSLAVSLGERATINCRASQDVSTSTYSYMHWYQQKPGQPPKLLIKYASNVESGVPDRFSGSGSGTDFTLTISSLQAEDVAVYYCQHSWAIPLTFGQGTKLEIK . Reported Receptor downregulation (EC50)?
0.035
